I'd appreciate it if you could supply IC50 values for the items below.
# studyTarget: full-length beta-Catenin (Uniprot ID P35222) (Homo sapiens (Human)) (UniProt P35222)
# assayMethodText: fluorescence polarization competition; full-length beta-catenin with 5FAM-TCF4(10-53) probe as competitor
Starred links: 1 amine or outer side, 2 acyl side, 3 side chain; linkers in the order of their positions; H or OH if unused. Positions of bridges follow the written chain, without caps; N, C: chain ends. Non-standard residues stand in square brackets, D forms with d. Primed or numbered codes have the meaning given here. B5(4) = 2,2-bis(4-pentenyl)glycine = 2-amino-2-(pent-4-en-1-yl)hept-6-enoic acid (stitching residue), C=CCCCC(CCCC=C)(N[*:1])C(=O)[*:2]; Bta = N[C@@H](Cc1csc2ccccc12)C(=O)O; αAllylPro = C=CC[C@@]1(C(=O)O)CCCN1; 2Thi = N[C@@H](Cc1cccs1)C(=O)O; Cit = NC(=O)NCCC[C@H](N)C(=O)O; S8 = C=CCCCCCC[C@](C)(N)C(=O)O
Numbers only, in nM.

{"binder": "Ac-[αAllylPro]DI[B5(4)]DDAA[2Thi]Q[S8]F[Bta]H-NH2 (staple 1-4, 4-11) [I-489]", "IC50 [nM]": 57}
{"binder": "Ac-[αAllylPro]DI[B5(4)]DEAA[2Thi]Q[S8]F[Bta]H-NH2 (staple 1-4, 4-11) [I-488]", "IC50 [nM]": 43}

Now for the binder whose IC50 we want.
Specify reported IC50 for the binder shown: Ac-[αAllylPro]DL[B5(4)]DEAAF[Cit][S8]F[Bta]Q-NH2 (staple 1-4, 4-11) [I-621]
58
